system: HCC-15; assay: relative viability (nuclei count vs DMSO), 5 days (fraction); higher = more cells survive; settings: first compound 15.81 µM
readout type: relative viability
Respond with the number and no other words.

The recorded relative viability for O=C(O)CCCCC(CCSCc1ccccc1)SCc1ccccc1 (stereo unspecified) [CPI-613] + CC(=O)c1c(C)c2cnc(Nc3ccc(N4CCNCC4)cn3)nc2n(C2CCCC2)c1=O [Palbociclib] (partner 0.5 µM) is 0.694

The recorded relative viability for O=C(O)CCCCC(CCSCc1ccccc1)SCc1ccccc1 (stereo unspecified) [CPI-613] + Nc1ncn([C@H]2C[C@H](O)[C@@H](CO)O2)c(=O)n1 [Decitabine] (partner 2 µM) is 0.592

The recorded relative viability for O=C(O)CCCCC(CCSCc1ccccc1)SCc1ccccc1 (stereo unspecified) [CPI-613] + Cc1cc(Nc2cc(N3CCN(C)CC3)nc(Sc3ccc(NC(=O)C4CC4)cc3)n2)n[nH]1 [Tozasertib] (partner 0.1 µM) is 0.367

The recorded relative viability for O=C(O)CCCCC(CCSCc1ccccc1)SCc1ccccc1 (stereo unspecified) [CPI-613] + N=C(N)NC(=N)NCCc1ccccc1 [Phenformin] (partner 250 µM) is 0.439

The recorded relative viability for O=C(O)CCCCC(CCSCc1ccccc1)SCc1ccccc1 (stereo unspecified) [CPI-613] + CC(=O)Nc1cccc(-n2c(=O)n(C3CC3)c(=O)c3c(Nc4ccc(I)cc4F)n(C)c(=O)c(C)c32)c1 [Trametinib] (partner 0.02 µM) is 0.363

The recorded relative viability for O=C(O)CCCCC(CCSCc1ccccc1)SCc1ccccc1 (stereo unspecified) [CPI-613] + C[C@]1(O)C[C@@H](c2nc(-c3ccc4ccc(-c5ccccc5)nc4c3)c3c(N)nccn32)C1 [Linsitinib] (partner 1 µM) is 0.845

Source listed as the supplement of paper PMC10307832.
